Attribute: target (unweighted spectral count of the protein in the RNP capture)
System: SARS-CoV-2 gRNA
Format: binding
Measurement conditions: […]; LC-MS/MS; Probe I sample (first 199 lines of Table 2)
Returns: the value as a bare number; no unit string appended.

{"columns": ["Molecule", "Observed value"],
 "data": [
  ["HNRNPH3 (protein, UniProt P31942 1-346, looked up) Heterogeneous nuclear …: MDWVMKHNGPNDASDGTVRLRGLPFGCSKEEIVQFFQGLEIVPNGITLTMDYQGRSTGEAFVQFASKEIAENALGKHKERIGHRYIEIFRSSRSEIKGFYDPPRRLLGQRPGPYDRPIGGRGGYYGAGRGSMYDRMRRGGDGYDGGYGGFDDYGGYNNYGYGNDGFDDRMRDGRGMGGHGYGGAGDASSGFHGGHFVHMRGLPFRATENDIANFFSPLNPIRVHIDIGADGRATGEADVEFVTHEDAVAAMSKDKNNMQHRYIELFLNSTPGGGSGMGGSGMGGYGRDGMDNQGGYGSVGRMGMGNNYSGGYGTPDGLGGYGRGGGGSGGYYGQGGMSGGGWRGMY", 23]
]}

Task: Entry RALY: host protein, UniProt Q9UKM9 (protein, UniProt Q9UKM9 2-306, looked up) RNA-binding protein Raly: SLKLQASNVTNKNDPKSINSRVFIGNLNTALVKKSDVETIFSKYGRVAGCSVHKGYAFVQYSNERHARAAVLGENGRVLAGQTLDINMAGEPKPDRPKGLKRAASAIYSGYIFDYDYYRDDFYDRLFDYRGRLSPVPVPRAVPVKRPRVTVPLVRRVKTNVPVKLFARSTAVTTSSAKIKLKSSELQAIKTELTQIKSNIDALLSRLEQIAAEQKANPDGKKKGDGGGAGGGGGGGGSGGGGSGGGGGGGSSRPPAPQENTTSEAGLPQGEARTRDDGDEEGLLTHSEEELEHSQDTDADDGALQ : reported target (unweighted spectral count of the protein in the RNP capture) = ?
Result: 33
